Listed here: items and their measured pIC50.
# TEST_SYSTEM: SHP-2 enzyme (Met1-Leu525) (Homo sapiens (Human))
# Sequence (Q06124 1-525): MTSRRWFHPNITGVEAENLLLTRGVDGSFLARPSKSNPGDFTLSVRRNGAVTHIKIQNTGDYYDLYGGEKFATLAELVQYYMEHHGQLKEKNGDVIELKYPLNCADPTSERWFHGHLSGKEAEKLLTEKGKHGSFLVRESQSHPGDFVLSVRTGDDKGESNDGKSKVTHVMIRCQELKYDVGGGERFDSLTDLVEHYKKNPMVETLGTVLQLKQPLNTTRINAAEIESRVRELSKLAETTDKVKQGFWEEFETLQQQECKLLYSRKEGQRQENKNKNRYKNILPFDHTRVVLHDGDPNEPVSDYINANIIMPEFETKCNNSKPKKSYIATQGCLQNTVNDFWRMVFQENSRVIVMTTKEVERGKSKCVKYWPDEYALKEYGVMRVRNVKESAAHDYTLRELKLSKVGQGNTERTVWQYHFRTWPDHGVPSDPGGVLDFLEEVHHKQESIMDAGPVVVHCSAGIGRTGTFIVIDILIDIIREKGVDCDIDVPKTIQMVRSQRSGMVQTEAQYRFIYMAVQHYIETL
# ASSAY_REMARKS: SHP2 inhibition enzymatic assay
# Format: biochemical
# PROTOCOL_CONDITIONS: 0.5 nM SHP-2 activated by 500 nM IRS1 peptide, 75 μM DiFMUP substrate; read-out: SHP2wt-IC50
pIC50: −log10 of the molar value.

Before answering, review these 5 worked examples.
COMPOUND	pIC50
NC[C@@]1(c2ccccc2F)C2CCN(c3ccc4nc(Sc5ccnc(N)c5Cl)ccc4n3)CC21 (stereo in doubt)	> 6.30
CS(=O)(=O)NC(=O)c1ccc(-c2n[nH]c3nc(N4CC[C@@H]5[C@H](C4)[C@@]5(CN)c4ccccc4F)cnc23)c2cccnc12	> 6.30
NCC1C2CCN(c3cnc4c(-c5cccc(Cl)c5Cl)n[nH]c4n3)CC12 (stereo not shown)	> 6.30
CCn1cc2c(Cl)c(-c3n[nH]c4nc(N5CC[C@@H]6[C@H](C5)[C@@]6(CN)c5ccccc5F)cnc34)ccc2n1	> 6.30
NC[C@]1(c2ccccc2F)[C@@H]2CCN(c3cnc4c(-c5ccc(C(N)=O)c6ncccc56)n[nH]c4n3)C[C@@H]21	> 6.30

Lookup result for Cc1csc(C2(CN)C3CCN(c4nc5[nH]nc(-c6cccc7ncccc67)c5nc4CO)CC32)n1 (stereo not shown) ; measured pIC50: > 6.30

Lookup result for Cc1cc([C@@]2(CN)[C@@H]3CCN(c4cnc5c(-c6ccnc7ccc(F)cc67)n[nH]c5n4)C[C@@H]32)no1 ; measured pIC50: > 6.30
